- assayedTarget: T1, His-tagged human HVEM (human, UniProt Q92956 39-202, limits assumed)
- T1 construct: Analyte of the BLI assay, 200 nM in PBS; not shown: His tag
- T1 sequence (looked up): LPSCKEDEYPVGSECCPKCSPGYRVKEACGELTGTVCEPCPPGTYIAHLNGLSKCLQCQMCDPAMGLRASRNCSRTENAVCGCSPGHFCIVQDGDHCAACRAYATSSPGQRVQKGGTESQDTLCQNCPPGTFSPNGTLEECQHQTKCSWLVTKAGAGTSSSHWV
- testDetails: BLI OctetRed96, mAb captured, 200 nM His-HVEM
recordedEndpoint: koff (s⁻¹)
Numeric only. Scale: s⁻¹

Worked set:
Ab_063 (H5S20-4A4A) (antibody, V domains shown, also called Ab_159; Ab_63) VH: EVKLVESGGGLMKPGGSLKLSCAASGFTFSSYAMSWVRQTPETRLEWVASISSGGSTYYPDSVKGRFTISRDNVRNILYLQMSSLRSEDTAMYFCTRGGYGSSYVIWGQGTTLTVSS VL: DIVMSQSPSSLAVSVGEKITMSCKSSQSLLFSSIQKNYLAWYQQKPGQSPKLLVYWASTRESGVPDRFTGSGSGTDFTLTISSVKAEDLAVYYCQQYYSYPFTFGSGTKLEIK = 0.00216
Ab_074 (H5S20-52A21A) (antibody, V domains shown, also called Ab_74) VH: EVQLQQSGAELVKPGASVKLSCTASGFNIKDTYIHWLNQRPEQGLEWIGRIDPANGKTKFAPKFQDKATITADTSSNTAYLQLSSLTSEDTAVYYCAGYGNSPWFAYWGQGTLVTVSA VL: DVLMTQTPLSLPVSLGDQASISCRSSQSIVHSNGNTYLEWYLQKPGQSPKLLIYKVSNRVSGVPDRFSGSGSGTDFTLKISRVEAEDLGVYYCFQGSHVPLTFGAGTKLELK = 0.0272
Ab_080 (H5S20-27A23A) (antibody, V domains shown, also called Ab_80) VH: EVQLQQSGTVLARPGASVKMSCKASGYSFTSYWMHWLKQRPGQGLEWIGAIYPGNSDTVFNQKFKGKAKLTAVTSATTAYMELSSLTNEDSAVYYCTKEPRTIEGAWFTYWGQGTLVTVSA VL: DIVMTQSPSSLTVPAGEKVTMSCKSSQSLLNSENQKNYLTWYQQKPGQPPKLLIYWASTRESGVPDRFTGSGSGTDFTLTISSVQAEDLAVYYCQSDYSYPLTFGAGTKLELK = 0.00115
Ab_027 (H5S15-17A16A) (antibody, V domains shown, also called Ab_27) VH: EVQLQQSGAELVKPGASVKLSCTASGFNIKDTYMHWVKQRPEQGLEWIGRIAPANGKTKFDPKFQGKATITADTSSNTAYLQLSSLTSEDTAVYYCANYYGRSNDWFVYWGQGTLVTVSA VL: DVLMTQTPLSLPVSLGDQASISCRSSQSIVHSNGITYLEWYLQKPGQSPELLIYKVSNRFSGVPDRFSGSGSGTDFTLKISRVEAEDLGVYYCFQGSHVPLTFGAGTKLELK = 0.00171
Ab_034 (H5S15-16A11B) (antibody, V domains shown, also called Ab_34) VH: DVQLVESGGGLVQPGGSRKLSCAASGFTFSSFGMHWVRQAPEKGLEWVAHISSGSSTIYYADTVKGRFTISRDNPKNTLFLQMTSLRSEDTAMYYCARGAYGNFAWFPYWGQGTLVTVSA VL: DVVMTQTPLSLSVSLGDQASISCRSSQSLVHSNGNTYLHWYLQKPGQSPKLLIYKVSNRFSGVPDRFSGSGSGTDFTLKISRVEAEDLGVYFCSQSTHVPTFGSGTKLEIK = 0.00235

*Q* Name the reported koff value associated with the binder Ab_055 (H5S19-1A1A) (antibody, V domains shown, also called Ab_55) VH: DVQLQESGPGLVKPSQSLSLTCTVTGYSITSDYAWNWIRQFPGNKLEWMGYIAYSGGTSYSPSLKSRISITRDTSKNQFFLQLNSVTTEDTATYYCVYFKYGGAFAYWGQGTLVTVSA VL: NIVLTQSPASLAVSLGQRATISCRASESVDSYGNSLMHWYQQKPGQPPKLLIYLASNLESGVPARFSGSGSRTDFTLTIDPVEADDAATYYCQQNNEDPPTFGGGTKLEI
*A* 0.0164

*Q* Which koff value is on record for Ab_079 (H5S20-22A18A) (antibody, V domains shown, also called Ab_79) VH: EVQLQQSGAELVKPGASVKLSCTASGFNIKDTYMHWVKQRPEQGLEWIGRIDPANGNTKYAPKFQGKATITADTSSNTAYLQLSSLTSEDTAVYYCARSFGNYFDYWGQGTTLTVSS VL: NIVLTQSPASLAVSLGQRATISCRASESVDSYGNSFMHWYQQKPGQPPKLLIYLASNLESGVPARFSGSGSRTDFTLTIDPVEADDAATYYCQQNYADPWTFGGGTKLEIK ?
*A* 0.0216

*Q* I have this binder here, Ab_035 (H5S15-9A10A) (antibody, V domains shown, also called Ab_35) VH: DVQLVESGGGLVQPGGSRKLSCAASGFTFSDFGMHWVRQAPEKGLEWVAHISSGSSTIYYADTVKGRFTISRDNPKNTLFLQMTSLRSEDTAMYYCARGAYGNFAWFPYWGQGTLVTVSA VL: DVVMTQTPLSLPVSLGDQASISCRSSQSLVHTNGNTYLHWYLQKPGQSPRLLIYKVSNRFSGVPDRFSGGGSGTDFTLKISRVEAEDLGVYFCSQSTHVPTFGSGTKLEIK , and I need its recorded koff.
*A* 0.00235

*Q* Which measured koff value corresponds to Ab_077 (H5S20-31A16B) (antibody, V domains shown, also called Ab_77) VH: EVQLQQSGAELVRSGASVKLSCTTSGFNIKDYYMHWVKQRPEQGLEWIGWIDPENGDTEYAPKFQGKATMTADTSSNTAYLQLSSLTSEDTAVYYCNSRTLGYWGQGTLVTVSA VL: QIVLTQSPALMSASPGEKVTMTCSASSSVSFIYWYQQKPRSSPKPWIYLTSNLASGVPARFSGSGSGTSYSLTISSMEAEDAATYYCQQWSSNPLTFGAGTKLEL ?
*A* 1.08
